# target.under.test: T1, HLA-A0201 on the surface of T2 cells (human)
# T1 construct: surface HLA-A*02:01 is detected with an anti-HLA-A*02:01 FITC monoclonal antibody after loading with peptide
# experimental.protocol: T2 cell peptide loading assay, 100 uM peptide, anti-HLA-A*02:01 FITC, flow cytometry
Provide the reported Mean fluorescence intensity of each item.
Quick one: just the number, no unit, thanks!

input: Consider the binder shown here: FLLGNLFFV (Made by solid phase peptide synthesis, HPLC purity >90%; also called OR4K5 S67F mutant polypeptide) [mutant polypeptide FLLGNLFFV (SEQ ID NO:1)] What is its recorded Mean fluorescence intensity?
output: 713

input: Consider the binder shown here: FMLGNLFFV (Made by solid phase peptide synthesis, HPLC purity >90%) [mutant polypeptide's variant FMLGNLFFV (SEQ ID NO:3)] What is its recorded Mean fluorescence intensity?
output: 694

input: Consider the binder shown here: FLLGNLFFL (Made by solid phase peptide synthesis, HPLC purity >90%) [mutant polypeptide's variant FLLGNLFFL (SEQ ID NO:2)] What is its recorded Mean fluorescence intensity?
output: 702

input: Consider the binder shown here: FLLGNLSFV (Made by solid phase peptide synthesis, HPLC purity >90%) [wild-type polypeptide FLLGNLSFV (SEQ ID NO:5)] What is its recorded Mean fluorescence intensity?
output: 724

input: Consider the binder shown here: FMLGNLFFL (Made by solid phase peptide synthesis, HPLC purity >90%) [mutant polypeptide's variant FMLGNLFFL (SEQ ID NO:4)] What is its recorded Mean fluorescence intensity?
output: 686
